Molecular target: Recombinant MAPKAPK2 (MK-2) (Homo sapiens, UniProt P49137)
Sequence (P49137 whole entry, species assumed): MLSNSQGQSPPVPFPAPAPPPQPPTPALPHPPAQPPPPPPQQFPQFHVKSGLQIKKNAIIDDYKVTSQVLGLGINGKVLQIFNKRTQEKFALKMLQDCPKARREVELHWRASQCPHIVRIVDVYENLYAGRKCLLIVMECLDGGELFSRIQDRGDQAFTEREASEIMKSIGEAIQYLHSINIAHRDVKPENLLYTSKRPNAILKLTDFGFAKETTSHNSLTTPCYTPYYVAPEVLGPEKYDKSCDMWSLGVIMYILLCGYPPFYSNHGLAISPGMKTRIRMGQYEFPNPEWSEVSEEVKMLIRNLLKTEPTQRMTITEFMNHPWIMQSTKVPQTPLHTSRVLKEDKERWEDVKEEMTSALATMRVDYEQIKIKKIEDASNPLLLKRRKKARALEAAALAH
Test: Determination of MK-2 IC50 (phosphorylation of HSP-peptide, anion exchange resin capture assay)
Format: biochemical
Conditions: additional values are replicate IC50 experiments; read-out: MK-2 Avg. IC50
Where a name gives a salt, the structure may show the parent alone.
Recorded measurements of IC50, one per entry

MOLECULE: O=C(OCc1ccccc1)C1c2[nH]c3ccc(OCc4ccccc4)cc3c2C2CCN1C2 (stereo not shown) [compound 47, trifluoroacetate]
MEASURED_TARGET: Recombinant MAPKAPK2 (MK-2) (Homo sapiens, UniProt P49137)
MEASUREMENT_QUALIFIER: >
IC50, µM: 200
//
MOLECULE: COc1ccc2[nH]c3c(c2c1)C1CCN(C1)C3C(=O)OC(C)(C)C (stereo not shown) [compound 41]
MEASURED_TARGET: Recombinant MAPKAPK2 (MK-2) (Homo sapiens, UniProt P49137)
MEASUREMENT_QUALIFIER: =
IC50, µM: 112
//
MOLECULE: COc1ccc2[nH]c3c(c2c1)C1CCN(C1)C3C(=O)OCC1CCCCC1 (stereo not shown) [No. 15, hydrochloride]
MEASURED_TARGET: Recombinant MAPKAPK2 (MK-2) (Homo sapiens, UniProt P49137)
MEASUREMENT_QUALIFIER: =
IC50, µM: 38.5
//
MOLECULE: COc1ccc2[nH]c3c(c2c1)C1CCN(C1)C3c1ccc[nH]1 (stereo not shown) [compound 50, trifluoroacetate]
MEASURED_TARGET: Recombinant MAPKAPK2 (MK-2) (Homo sapiens, UniProt P49137)
MEASUREMENT_QUALIFIER: >
IC50, µM: 200

FYI, the data here is from patent US20050101623A1.
